Data provenance is PubChem BioAssay (EPA / NIEHS).

Read-out: Cytochrome P450 7A1 (Homo sapiens) (UniProt P22680)
Test: LTEA_HepaRG_CYP7A1: Life Technologies and Expression Analysis (LTEA) Assay for Cytochrome P450 7A1 (CYP7A1) using HepaRG (AID 2283496)
Conditions: mRNA level, 48 h; actives raise or lower the signal
Calls of active or inactive are those of the source. The calls were made as follows: active = hit-call score of the fitted dose curve at least 0.9, where 1 is the maximum; inactive = score below 0.9.
Write down the outcome that applies. Available outcomes: active, inactive

>>> assigned_category("Cc1ccc(N)cc1O")
"active"
>>> assigned_category("C[C@](N)(Cc1ccc(O)c(O)c1)C(=O)O")
"inactive"
>>> assigned_category("O=C(O)CCN(C1(C(=O)NO)CCCC1)S(=O)(=O)c1ccc(Oc2ccc(F)cc2)cc1")
"inactive"
>>> assigned_category("CN(C)c1ccc(Cc2ccc(N(C)C)cc2)cc1")
"inactive"
>>> assigned_category("CCNc1ccccc1")
"inactive"

Exercise: Fill in: this test's call for `Nc1ccc(Nc2ccccc2)cc1` is ___
Solution: active

* * *

Read-out: Cytochrome P450 4A22 (Homo sapiens) (UniProt Q5TCH4)
Test: LTEA_HepaRG_CYP4A22: Life Technologies and Expression Analysis (LTEA) Assay for Cytochrome P450 4A22 (CYP4A22) using HepaRG (AID 2283495)
Conditions: mRNA level, 48 h; actives raise or lower the signal
Activity calls are given as the source filed them. The calls were made as follows: active = hit-call score of the fitted dose curve at least 0.9, where 1 is the maximum; inactive = score below 0.9.
Choose the fitting class; nothing outside 1 for active, 0 for inactive is accepted.

# count of solved cases: 2
>>> assigned_category("CC/C(=C\\C(=N/O)C(N)=O)C(C)[N+](=O)[O-] (configuration not stated)")
0
>>> assigned_category("O=c1n(CC2CO2)c(=O)n(CC2CO2)c(=O)n1CC1CO1 (configuration not stated)")
0

Exercise: // param item: `CC(C)CCCCCCCOC(=O)CCCCC(=O)OCCCCCCCC(C)C` ; yields the recorded call
Solution: 0

Exercise: Query: recorded result category for `CCNc1ccccc1` in this test
Solution: 0

Exercise: Each molecule tested received a call. Report the one for `CCOCCOCCOCCO` .
Solution: 0

* * *

Read-out: catalase (CAT), CAT (gene 847)
Experiment: LTEA_HepaRG_CAT: Life Technologies and Expression Analysis (LTEA) Assay for catalase (CAT) using HepaRG (AID 2283452)
Conditions: mRNA level, 48 h; actives raise or lower the signal
Active and inactive are the calls of the source. How the source made its calls: active means hit-call score of the fitted dose curve at least 0.9, where 1 is the maximum; inactive means score below 0.9.
// one of Y for active, N for inactive, no free text

Example entries and their recorded answers appear below.
>>> assigned_category("CC[C@H]1CC[C@H](NCc2cc3c(cc2OC)[C@H]2C[C@H]2C(=O)N3C)[C@H](c2ccccc2)N1")
"N"
>>> assigned_category("Cc1[nH]cnc1C[C@H]1CCc2c(C)c3ccccc3n2C1=O")
"Y"
>>> assigned_category("CC(C)=CCCC(C)=CC=O")
"N"
>>> assigned_category("O=C(O)c1cccc(Oc2ccccc2)c1")
"N"
>>> assigned_category("CCCCCCc1ccc(O)cc1O")
"N"

Exercise: State the result this test recorded for `C[C@](N)(Cc1ccc(O)c(O)c1)C(=O)O` .
Solution: N

Exercise: // param item: `CC(C)CCO` ; yields the recorded call
Solution: N

* * *

Experiment: ATG_M_32_CIS: Attagene CIS-FACTORIAL HepG2 Assay for M32 Transcription Factor (Internal Marker) (AID 2282949);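 also: background control marker of the multiplexed CIS panel rather than a real target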
Settings: HepG2 Attagene cis-factorial M32 reporter, mRNA; actives raise or lower the signal
Activity calls are given as the source filed them. The calls were made as follows: active = hit-call score of the fitted dose curve at least 0.9, where 1 is the maximum; inactive = score below 0.9.
PARAMETER: outcome

>>> result("CC[C@H](C)C(=O)O[C@H]1C[C@@H](C)C=C2C=C[C@H](C)[C@H](CC[C@@H]3C[C@@H](O)CC(=O)O3)[C@H]21")
"inactive"
>>> result("CCOC(=O)COc1ccc2c(c1)CC(NCC(O)c1cccc(Cl)c1)CC2 (stereo not drawn)")
"inactive"
>>> result("Nc1ccc(Nc2ccccc2)cc1")
"inactive"
>>> result("O=C(OC[C@H]1O[C@@H](OC(=O)c2cc(O)c(O)c(OC(=O)c3cc(O)c(O)c(O)c3)c2)[C@H](OC(=O)c2cc(O)c(O)c(OC(=O)c3cc(O)c(O)c(O)c3)c2)[C@@H](OC(=O)c2cc(O)c(O)c(OC(=O)c3cc(O)c(O)c(O)c3)c2)[C@@H]1OC(=O)c1cc(O)c(O)c(OC(=O)c2cc(O)c(O)c(O)c2)c1)c1cc(O)c(O)c(OC(=O)c2cc(O)c(O)c(O)c2)c1")
"inactive"
>>> result("Clc1nc(Cl)c(Cl)c(Cl)c1Cl")
"inactive"

Value of outcome reported for the compound `CCOCCOCCOCCO` is inactive

So, O=C(O)CC(O)C(=O)O (stereo not drawn) ? Its outcome was inactive

Reported outcome of `O=P(OC(CCl)CCl)(OC(CCl)CCl)OC(CCl)CCl` : inactive
